assay: Absorbability through the gut, oral, aqueous and non-aqueous dispersing solvents, plasma concentration in rats (Test Example 5); format: in vivo, Wistar male rats; conditions: rat, plasma, po, 20 mg/kg, 2.5% (w/v) methyl cellulose, oral 20 mg/kg, 3 hrs
Quantity Kind: concentration at 3 h (ng/mL)

Compound: O=C(NC(=O)c1ccccc1[N+](=O)[O-])Nc1ccc(Oc2ncc(Br)cn2)c(Cl)c1 [Compound No. 3]
Output Unit: ng/mL
Number: 110

----------
assay: Absorbability through the gut, oral, aqueous and non-aqueous dispersing solvents, plasma concentration in rats (Test Example 5); assay type: in vivo, Wistar male rats; settings: rat, plasma, po, 20 mg/kg, 10% (w/v) hydroxypropyl cellulose, oral 20 mg/kg, 5 hrs

Cpd Smiles: O=C(NC(=O)c1ccccc1[N+](=O)[O-])Nc1ccc(Oc2ncc(Br)cn2)c(Cl)c1
concentration at 5 h / ng/mL: 110
